Target: Fatty acid synthase (Homo sapiens, UniProt P49327)
Sequence (P49327 whole entry, the tested form may be a part): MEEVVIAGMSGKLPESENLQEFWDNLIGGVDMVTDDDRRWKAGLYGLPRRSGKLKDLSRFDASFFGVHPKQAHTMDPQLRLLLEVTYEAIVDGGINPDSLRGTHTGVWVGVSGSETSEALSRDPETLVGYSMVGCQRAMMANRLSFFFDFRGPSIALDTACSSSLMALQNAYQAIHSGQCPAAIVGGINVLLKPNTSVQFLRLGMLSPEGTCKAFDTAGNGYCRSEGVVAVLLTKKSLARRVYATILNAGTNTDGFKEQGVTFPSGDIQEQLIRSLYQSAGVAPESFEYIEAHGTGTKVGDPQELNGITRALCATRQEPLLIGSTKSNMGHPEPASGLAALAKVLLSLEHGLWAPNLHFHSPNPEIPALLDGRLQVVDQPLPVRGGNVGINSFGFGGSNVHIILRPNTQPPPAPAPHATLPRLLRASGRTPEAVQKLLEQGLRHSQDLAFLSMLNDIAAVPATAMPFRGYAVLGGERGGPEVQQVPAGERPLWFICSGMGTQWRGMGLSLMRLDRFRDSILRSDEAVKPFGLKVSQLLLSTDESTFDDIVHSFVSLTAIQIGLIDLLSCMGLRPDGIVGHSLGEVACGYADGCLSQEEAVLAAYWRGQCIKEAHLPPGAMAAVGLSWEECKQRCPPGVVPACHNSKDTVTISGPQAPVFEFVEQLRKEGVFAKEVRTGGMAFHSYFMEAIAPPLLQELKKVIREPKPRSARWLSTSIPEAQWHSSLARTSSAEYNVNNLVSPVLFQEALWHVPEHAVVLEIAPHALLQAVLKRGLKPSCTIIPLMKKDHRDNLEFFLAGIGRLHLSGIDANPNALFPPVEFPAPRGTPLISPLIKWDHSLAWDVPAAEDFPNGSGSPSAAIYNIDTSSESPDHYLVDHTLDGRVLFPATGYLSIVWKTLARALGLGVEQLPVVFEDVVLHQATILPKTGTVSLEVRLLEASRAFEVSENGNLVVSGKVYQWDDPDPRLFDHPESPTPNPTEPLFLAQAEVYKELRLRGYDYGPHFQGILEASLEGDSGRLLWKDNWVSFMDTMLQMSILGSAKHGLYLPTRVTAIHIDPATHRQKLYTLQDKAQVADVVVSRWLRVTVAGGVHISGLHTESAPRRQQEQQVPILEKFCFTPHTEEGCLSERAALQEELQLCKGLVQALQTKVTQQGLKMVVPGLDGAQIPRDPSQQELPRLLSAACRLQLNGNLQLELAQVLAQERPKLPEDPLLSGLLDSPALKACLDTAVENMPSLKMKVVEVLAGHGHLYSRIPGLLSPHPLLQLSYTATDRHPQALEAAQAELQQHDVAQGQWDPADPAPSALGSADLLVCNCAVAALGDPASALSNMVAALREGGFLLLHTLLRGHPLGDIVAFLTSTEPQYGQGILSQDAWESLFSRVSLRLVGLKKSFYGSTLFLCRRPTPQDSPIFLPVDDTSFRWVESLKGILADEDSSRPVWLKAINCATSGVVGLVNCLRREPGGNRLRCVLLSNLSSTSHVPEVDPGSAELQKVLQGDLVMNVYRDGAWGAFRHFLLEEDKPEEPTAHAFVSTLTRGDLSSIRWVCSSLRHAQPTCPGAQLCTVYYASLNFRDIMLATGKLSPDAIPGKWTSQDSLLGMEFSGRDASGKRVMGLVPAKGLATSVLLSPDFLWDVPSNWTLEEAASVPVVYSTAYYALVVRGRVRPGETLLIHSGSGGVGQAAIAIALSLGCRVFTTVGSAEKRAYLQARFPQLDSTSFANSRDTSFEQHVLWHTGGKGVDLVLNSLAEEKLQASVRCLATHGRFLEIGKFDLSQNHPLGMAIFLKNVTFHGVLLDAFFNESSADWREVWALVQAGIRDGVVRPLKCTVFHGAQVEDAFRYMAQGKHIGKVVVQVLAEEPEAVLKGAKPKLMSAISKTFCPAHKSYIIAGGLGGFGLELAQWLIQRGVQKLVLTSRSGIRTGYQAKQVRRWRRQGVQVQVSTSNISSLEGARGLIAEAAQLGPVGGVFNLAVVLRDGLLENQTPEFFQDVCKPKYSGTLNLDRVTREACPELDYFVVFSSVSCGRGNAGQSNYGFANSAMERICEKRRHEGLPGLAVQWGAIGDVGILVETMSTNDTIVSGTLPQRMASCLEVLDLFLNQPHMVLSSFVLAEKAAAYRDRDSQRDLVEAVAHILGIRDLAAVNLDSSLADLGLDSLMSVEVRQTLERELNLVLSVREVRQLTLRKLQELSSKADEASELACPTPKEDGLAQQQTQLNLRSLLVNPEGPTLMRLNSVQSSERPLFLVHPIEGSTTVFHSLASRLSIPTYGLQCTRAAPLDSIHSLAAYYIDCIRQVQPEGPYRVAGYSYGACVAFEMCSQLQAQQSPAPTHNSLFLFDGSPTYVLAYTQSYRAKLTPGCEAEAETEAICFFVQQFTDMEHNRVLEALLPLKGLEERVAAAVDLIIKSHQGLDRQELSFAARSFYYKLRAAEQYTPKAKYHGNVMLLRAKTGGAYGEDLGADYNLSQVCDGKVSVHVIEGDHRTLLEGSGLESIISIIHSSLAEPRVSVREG
Assay: FAS thioesterase domain inhibitors, dose response, biochemical, kinetic fluorescence intensity (AID 624326);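 note: rate of fluorescence rise from hydrolysis of a fluorogenic O-methyl fluorescein ester substrate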
Type: functional
Activity calls are given as the source filed them. Cut-off read from the data, not from the text of the source: active = IC50 of 20 µM or less and inactive = more.
value kind: IC50

Answered cases to consult:
Req: Please tell me: IC50 of `Cc1ccc(NC(=O)C2(c3ccc([N+](=O)[O-])cc3)CCCC2)cc1` , system Fatty acid synthase (Homo sapiens, UniProt P49327)?
Resp: 8730 nM (active)

Req: Please tell me: IC50 of CC(NC(=O)COC(=O)c1cc([N+](=O)[O-])ccc1N1CCOCC1)c1ccc(F)cc1 (centres undefined) , system Fatty acid synthase (Homo sapiens, UniProt P49327)?
Resp: 1480 nM (active)

Req: Please tell me: IC50 of `O=C(O)CSc1cc(C(=O)c2ccccc2O)cn2c(=O)c3c(-c4ccccc4)csc3nc12` , system Fatty acid synthase (Homo sapiens, UniProt P49327)?
Resp: 4300 nM (active)

Req: Please tell me: IC50 of `CCOC(=O)c1ccc(NC(=O)c2[nH]cnc2C(=O)N[C@@H](CCCCNC(=O)OC(C)(C)C)C(=O)OC(C)(C)C)cc1` , system Fatty acid synthase (Homo sapiens, UniProt P49327)?
Resp: 463 nM (active)

Req: Please tell me: IC50 of `C=CCOc1c(Br)cc(/C=N/Nc2ccc(C(=O)O)cc2)cc1OCC` , system Fatty acid synthase (Homo sapiens, UniProt P49327)?
Resp: 10500 nM (active)

Next:
Req: Please tell me: IC50 of `CC(C)(C)c1ccc(C(=O)N/C(=C\c2cccc([N+](=O)[O-])c2)C(=O)Nc2cccc(C(=O)O)c2)cc1` , system Fatty acid synthase (Homo sapiens, UniProt P49327)?
Resp: 1480 nM (active)

Req: Please tell me: IC50 of `CCC(=O)OCCNc1cc(Sc2nc3ccccc3[nH]2)c2nonc2c1[N+](=O)[O-]` , system Fatty acid synthase (Homo sapiens, UniProt P49327)?
Resp: 845 nM (active)

Req: Please tell me: IC50 of O=C(Nc1nc(-c2ccc(S(=O)(=O)N3CCCC3)cc2)cs1)C1COc2ccccc2O1 (centres undefined) , system Fatty acid synthase (Homo sapiens, UniProt P49327)?
Resp: 1280 nM (active)

Req: Please tell me: IC50 of `O=C(COC(=O)CCc1ccccc1)Nc1cc([N+](=O)[O-])ccc1F` , system Fatty acid synthase (Homo sapiens, UniProt P49327)?
Resp: 6270 nM (active)
